- Tested System: DNA gyrase subunit B (Mycobacterium smegmatis, UniProt P0C559)
- Sequence (P0C559 whole entry): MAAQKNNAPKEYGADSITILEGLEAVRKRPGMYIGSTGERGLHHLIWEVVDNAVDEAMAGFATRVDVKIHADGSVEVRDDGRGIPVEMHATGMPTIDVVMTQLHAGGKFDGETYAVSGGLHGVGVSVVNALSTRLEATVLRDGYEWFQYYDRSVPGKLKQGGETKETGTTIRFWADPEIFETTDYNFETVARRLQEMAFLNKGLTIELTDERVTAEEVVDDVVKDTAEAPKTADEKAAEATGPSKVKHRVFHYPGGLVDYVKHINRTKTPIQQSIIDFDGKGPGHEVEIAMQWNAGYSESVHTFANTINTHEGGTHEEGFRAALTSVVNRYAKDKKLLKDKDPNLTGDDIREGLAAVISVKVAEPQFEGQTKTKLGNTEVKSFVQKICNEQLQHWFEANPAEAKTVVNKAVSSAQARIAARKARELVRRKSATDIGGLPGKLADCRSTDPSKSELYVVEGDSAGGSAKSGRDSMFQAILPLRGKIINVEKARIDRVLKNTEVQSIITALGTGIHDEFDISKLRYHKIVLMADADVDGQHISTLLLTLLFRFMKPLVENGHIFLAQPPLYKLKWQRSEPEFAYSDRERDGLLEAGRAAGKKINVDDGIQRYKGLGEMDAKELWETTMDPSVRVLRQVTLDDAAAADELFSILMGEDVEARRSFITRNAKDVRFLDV
- Assay Info: Inhibition of purified Mycobacterium smegmatis GyrB at 50 to 100 uM after 100 mins by ATPase assay
Binarize IC50 at 20 µM; below is true, at or above is false.

Some solved entries appear below for comparison.
Input line: Given the entry CCOC(=O)c1cc2cc(N3CCN(C(=O)Nc4ccc(Cl)cc4)CC3)ccc2o1 , would its reported IC50 be below 20 µM?
Output line: false

Input line: Given the entry O=C(Nc1ccc(Cl)cc1)N1CCN(c2nsc3ccccc23)CC1 , would its reported IC50 be below 20 µM?
Output line: true

Input line: Given the entry S=C(Nc1ccccc1)N1CCN(c2nsc3ccccc23)CC1 , would its reported IC50 be below 20 µM?
Output line: true

Input line: Given the entry COc1ccc(NC(=S)N2CCN(c3nsc4ccccc34)CC2)cc1 , would its reported IC50 be below 20 µM?
Output line: true

Input line: Given the entry O=C(NCc1ccccc1)N1CCN(c2nsc3ccccc23)CC1 , would its reported IC50 be below 20 µM?
Output line: true

Input line: Given the entry CCOC(=O)c1cc2cc(N3CCN(C(=O)Nc4ccc(OC)cc4)CC3)ccc2o1 , would its reported IC50 be below 20 µM?
Output line: true

Input line: Given the entry CCOC(=O)c1cc2cc(N3CCN(C(=S)NCc4ccc(Cl)cc4)CC3)ccc2o1 , would its reported IC50 be below 20 µM?
Output line: false

Input line: Given the entry CC(=O)c1ccc(NC(=S)N2CCN(c3nsc4ccccc34)CC2)cc1 , would its reported IC50 be below 20 µM?
Output line: true

Others:
Input line: Given the entry S=C(NCc1ccccc1)N1CCN(c2nsc3ccccc23)CC1 , would its reported IC50 be below 20 µM?
Output line: false

Input line: Given the entry CC(=O)c1ccc(NC(=O)N2CCN(c3nsc4ccccc34)CC2)cc1 , would its reported IC50 be below 20 µM?
Output line: false

Input line: Given the entry CCOC(=O)c1cc2cc(N3CCN(C(=O)NCc4ccc(Cl)cc4)CC3)ccc2o1 , would its reported IC50 be below 20 µM?
Output line: true

Input line: Given the entry COc1ccc(NC(=O)N2CCN(c3nsc4ccccc34)CC2)cc1 , would its reported IC50 be below 20 µM?
Output line: false

----------
- Assay Info: Cytotoxicity against mouse RAW264.7 cells assessed as reduction in cell viability at 100 uM after 72 hrs by MTT assay
- Format: cell-based
- Recorded Conditions: read-out: INH
Observable: cytotoxicity at 72 h, 100 µM (%)
Record the value in %, omitting the unit from your answer.

Input line: Quick one: give measured cytotoxicity at 72 h, 100 µM for CCOC(=O)c1cc2cc(N3CCN(C(=S)Nc4ccc([N+](=O)[O-])cc4)CC3)ccc2o1
Output line: 25.8

Others:
Input line: Quick one: give measured cytotoxicity at 72 h, 100 µM for S=C(Nc1ccc(Cl)cc1)N1CCN(c2nsc3ccccc23)CC1
Output line: 44.2

Input line: Quick one: give measured cytotoxicity at 72 h, 100 µM for O=C(Nc1ccc(Cl)cc1)N1CCN(c2nsc3ccccc23)CC1
Output line: 20.3

Input line: Quick one: give measured cytotoxicity at 72 h, 100 µM for CCOC(=O)c1cc2cc(N3CCN(C(=S)NCc4ccc(Cl)cc4)CC3)ccc2o1
Output line: 41.5

----------
Known IC50 of a selection of compounds
- Tested System: DNA gyrase subunit A/DNA gyrase subunit B (Mycobacterium tuberculosis (strain ATCC 25618 / H37Rv), UniProt P9WG45+P9WG47)
- Sequence (P9WG45 whole entry): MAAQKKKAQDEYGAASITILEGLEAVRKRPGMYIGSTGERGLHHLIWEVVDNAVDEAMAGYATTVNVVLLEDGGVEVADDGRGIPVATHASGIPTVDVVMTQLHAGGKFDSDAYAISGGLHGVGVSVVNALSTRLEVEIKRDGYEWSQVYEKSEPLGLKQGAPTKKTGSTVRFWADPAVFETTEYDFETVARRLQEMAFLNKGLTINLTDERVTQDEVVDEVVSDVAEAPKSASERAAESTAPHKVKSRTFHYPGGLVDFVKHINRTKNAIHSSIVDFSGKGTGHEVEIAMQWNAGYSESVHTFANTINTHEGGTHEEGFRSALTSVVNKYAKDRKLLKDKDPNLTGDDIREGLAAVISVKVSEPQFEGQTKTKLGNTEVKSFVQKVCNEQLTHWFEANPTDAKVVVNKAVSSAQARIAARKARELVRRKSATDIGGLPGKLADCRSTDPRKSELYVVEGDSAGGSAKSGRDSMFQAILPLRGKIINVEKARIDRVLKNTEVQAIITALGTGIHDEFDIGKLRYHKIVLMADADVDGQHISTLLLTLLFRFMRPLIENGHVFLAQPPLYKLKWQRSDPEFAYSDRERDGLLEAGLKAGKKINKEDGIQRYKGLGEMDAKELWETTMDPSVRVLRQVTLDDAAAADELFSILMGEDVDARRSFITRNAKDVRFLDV
- Sequence (P9WG47 whole entry): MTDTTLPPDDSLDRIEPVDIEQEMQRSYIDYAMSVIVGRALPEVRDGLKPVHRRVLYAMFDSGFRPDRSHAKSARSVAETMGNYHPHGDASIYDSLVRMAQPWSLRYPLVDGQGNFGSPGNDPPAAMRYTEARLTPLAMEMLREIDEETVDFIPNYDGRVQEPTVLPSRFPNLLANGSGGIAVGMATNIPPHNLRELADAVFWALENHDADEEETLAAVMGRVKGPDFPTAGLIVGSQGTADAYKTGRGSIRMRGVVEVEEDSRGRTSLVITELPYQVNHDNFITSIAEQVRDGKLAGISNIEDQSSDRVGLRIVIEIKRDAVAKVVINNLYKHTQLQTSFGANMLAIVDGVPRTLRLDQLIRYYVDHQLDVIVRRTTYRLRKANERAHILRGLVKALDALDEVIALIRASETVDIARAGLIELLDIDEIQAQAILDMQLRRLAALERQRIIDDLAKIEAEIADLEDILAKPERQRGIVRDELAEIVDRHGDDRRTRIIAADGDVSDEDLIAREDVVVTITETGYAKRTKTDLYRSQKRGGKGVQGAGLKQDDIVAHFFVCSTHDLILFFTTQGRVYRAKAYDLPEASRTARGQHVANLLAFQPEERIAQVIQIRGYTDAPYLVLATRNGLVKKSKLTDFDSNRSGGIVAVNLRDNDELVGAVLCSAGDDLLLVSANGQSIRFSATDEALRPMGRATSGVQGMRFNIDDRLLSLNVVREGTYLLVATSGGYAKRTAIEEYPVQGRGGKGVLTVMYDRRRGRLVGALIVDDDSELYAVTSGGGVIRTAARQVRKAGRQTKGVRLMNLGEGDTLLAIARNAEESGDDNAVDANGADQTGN
- Assay Info: Inhibition of Mycobacterium tuberculosis DNA gyrase using relaxed pBR322 as substrate after 30 mins by supercoiling assay
Could you give the number and then its unit, please?

Input line: Quick one: give measured IC50 for COc1ccc(NC(=O)N2CCN(c3nsc4ccccc34)CC2)cc1
Output line: 12.2 µM

Input line: Quick one: give measured IC50 for CCOC(=O)c1cc2cc(N3CCN(C(=S)NCc4ccccc4)CC3)ccc2o1
Output line: 9.1 µM

Input line: Quick one: give measured IC50 for CCOC(=O)c1cc2cc(N3CCN(C(=S)Nc4ccc([N+](=O)[O-])cc4)CC3)ccc2o1
Output line: 10.6 µM

Others:
Input line: Quick one: give measured IC50 for CCOC(=O)c1cc2cc(N3CCN(C(=S)Nc4ccccc4)CC3)ccc2o1
Output line: 7.2 µM

----------
Known cytotoxicity at 72 h, 100 µM of a selection of compounds
- Assay Info: Cytotoxicity against mouse RAW264.7 cells assessed as reduction in cell viability at 100 uM after 72 hrs by MTT assay
- Type: cell-based
- Recorded Conditions: read-out: INH
Could you give the number and then its unit, please?

Check out these entries, answers already filled in.
Input line: Quick one: give measured cytotoxicity at 72 h, 100 µM for CCOC(=O)c1cc2cc(N3CCN(C(=O)Nc4ccc(Cl)cc4)CC3)ccc2o1
Output line: 19.2%

Input line: Quick one: give measured cytotoxicity at 72 h, 100 µM for O=C(Nc1ccccc1)N1CCN(c2nsc3ccccc23)CC1
Output line: 27%

Input line: Quick one: give measured cytotoxicity at 72 h, 100 µM for CCOC(=O)c1cc2cc(N3CCN(C(=O)Nc4ccc(OC)cc4)CC3)ccc2o1
Output line: 19.9%

Input line: Quick one: give measured cytotoxicity at 72 h, 100 µM for O=[N+]([O-])c1ccc(NC(=S)N2CCN(c3nsc4ccccc34)CC2)cc1
Output line: 27.6%

Input line: Quick one: give measured cytotoxicity at 72 h, 100 µM for CCOC(=O)c1cc2cc(N3CCN(C(=S)Nc4ccc(Cl)cc4)CC3)ccc2o1
Output line: 30%

Others:
Input line: Quick one: give measured cytotoxicity at 72 h, 100 µM for CCOC(=O)c1cc2cc(N3CCN(C(=S)NCc4ccccc4)CC3)ccc2o1
Output line: 45.8%

----------
- Tested System: DNA gyrase subunit A/DNA gyrase subunit B (Mycobacterium tuberculosis (strain ATCC 25618 / H37Rv), UniProt P9WG45+P9WG47)
- Assay Info: Inhibition of Mycobacterium tuberculosis DNA gyrase using relaxed pBR322 as substrate after 30 mins by supercoiling assay
Observable: pIC50
As a rule, pIC50 stands for the negative log10 of the concentration, concentration in M.

Input line: Quick one: give measured pIC50 for O=C(Nc1ccc([N+](=O)[O-])cc1)N1CCN(c2nsc3ccccc23)CC1
Output line: 4.91

Input line: Quick one: give measured pIC50 for CC(=O)c1ccc(NC(=S)N2CCN(c3nsc4ccccc34)CC2)cc1
Output line: 5.08

With those in mind, consider the next compound.
Input line: Quick one: give measured pIC50 for CC(=O)c1ccc(NC(=O)N2CCN(c3nsc4ccccc34)CC2)cc1
Output line: 5.02
